system: NCI-H1563; assay: relative viability (nuclei count vs DMSO), 5 days (fraction); higher = more cells survive; conditions: first compound 0.3162 µM

COMPOUND	TESTED_ON	relative viability
O=c1cc(N2CCOCC2)oc2c(-c3cccc4c3sc3ccccc34)cccc12 + Cc1nc(NC(=O)N2CCC[C@H]2C(N)=O)sc1-c1ccnc(C(C)(C)C(F)(F)F)c1 [Alpelisib] (partner 2 µM)	NCI-H1563	0.833
O=c1cc(N2CCOCC2)oc2c(-c3cccc4c3sc3ccccc34)cccc12 + COc1cccc2cc(-c3nc([C@H]4CC[C@H](C(=O)O)CC4)n4ncnc(N)c34)[nH]c12 [OSI-027] (partner 0.5 µM)	NCI-H1563	0.794
CCN(CC)CCCCNc1ncc2cc(-c3cc(OC)cc(OC)c3)c(NC(=O)NC(C)(C)C)nc2n1 + CC(C)C[C@H](NC(=O)[C@H](Cc1ccccc1)NC(=O)c1cnccn1)B(O)O [Bortezomib] (partner 0.002 µM)	NCI-H1563	0.809
O=c1cc(N2CCOCC2)oc2c(-c3cccc4c3sc3ccccc34)cccc12 + COc1cc2c(Oc3ccc(NC(=O)C4(C(=O)Nc5ccc(F)cc5)CC4)cc3F)ccnc2cc1OCCCN1CCOCC1 [Foretinib] (partner 0.25 µM)	NCI-H1563	0.901
CCN(CC)CCCCNc1ncc2cc(-c3cc(OC)cc(OC)c3)c(NC(=O)NC(C)(C)C)nc2n1 + CCNC(=O)c1noc(-c2cc(C(C)C)c(O)cc2O)c1-c1ccc(CN2CCOCC2)cc1 [Luminespib] (partner 0.01 µM)	NCI-H1563	0.597

---

system: LCLC-97TM1; test: relative viability (nuclei count vs DMSO), 5 days (fraction); higher = more cells survive; settings: first compound 0.03162 µM
# Lookup of reported relative viability keyed by entry

MOLECULE	relative viability
CCN(CC)CCCCNc1ncc2cc(-c3cc(OC)cc(OC)c3)c(NC(=O)NC(C)(C)C)nc2n1 + O=C(CCCCCCC(=O)Nc1ccccc1)NO [Vorinostat] (partner 1 µM)	0.779
O=c1cc(N2CCOCC2)oc2c(-c3cccc4c3sc3ccccc34)cccc12 + COc1cc2c(Oc3ccc(NC(=O)C4(C(=O)Nc5ccc(F)cc5)CC4)cc3F)ccnc2cc1OCCCN1CCOCC1 [Foretinib] (partner 0.25 µM)	0.926
CCN(CC)CCCCNc1ncc2cc(-c3cc(OC)cc(OC)c3)c(NC(=O)NC(C)(C)C)nc2n1 + O=C(c1cc(Cc2n[nH]c(=O)c3ccccc23)ccc1F)N1CCN(C(=O)C2CC2)CC1 [Olaparib] (partner 8 µM)	0.399
O=c1cc(N2CCOCC2)oc2c(-c3cccc4c3sc3ccccc34)cccc12 + O=C(CCCCCCC(=O)Nc1ccccc1)NO [Vorinostat] (partner 1 µM)	0.725
O=c1cc(N2CCOCC2)oc2c(-c3cccc4c3sc3ccccc34)cccc12 + CC(=O)Nc1cccc(-n2c(=O)n(C3CC3)c(=O)c3c(Nc4ccc(I)cc4F)n(C)c(=O)c(C)c32)c1 [Trametinib] (partner 0.02 µM)	0.161

---

system: EKVX; test: relative viability (nuclei count vs DMSO), 5 days (fraction); higher = more cells survive; conditions: first compound 0.253 µM
# reported relative viability; entries follow
MEASURED_QUANTITY: relative viability

MOLECULE	TESTED_ON	MEASURED_QUANTITY	RESULT_NUMBER
COc1nc(C)cnc1NS(=O)(=O)c1cccnc1-c1ccc(-c2nnco2)cc1 [Zibotentan] + CS(=O)(=O)N1CCN(Cc2cc3nc(-c4cccc5[nH]ncc45)nc(N4CCOCC4)c3s2)CC1 [Pictilisib] (partner 1 µM)	EKVX	relative viability	0.451
O=c1cc(-c2cccc3c2Sc2ccccc2S3)oc(N2CCOCC2)c1 + NC(=O)Nc1cc(-c2cccc(F)c2)sc1C(=O)N[C@H]1CCCNC1 [AZD7762] (partner 0.2 µM)	EKVX	relative viability	0.709
O=c1cc(-c2cccc3c2Sc2ccccc2S3)oc(N2CCOCC2)c1 + Cc1cc(Nc2cc(N3CCN(C)CC3)nc(Sc3ccc(NC(=O)C4CC4)cc3)n2)n[nH]1 [Tozasertib] (partner 0.1 µM)	EKVX	relative viability	0.376
COc1nc(C)cnc1NS(=O)(=O)c1cccnc1-c1ccc(-c2nnco2)cc1 [Zibotentan] + Nc1ncn([C@H]2C[C@H](O)[C@@H](CO)O2)c(=O)n1 [Decitabine] (partner 2 µM)	EKVX	relative viability	0.339
O=c1cc(-c2cccc3c2Sc2ccccc2S3)oc(N2CCOCC2)c1 + CS(=O)(=O)CCNCc1ccc(-c2ccc3ncnc(Nc4ccc(OCc5cccc(F)c5)c(Cl)c4)c3c2)o1 [Lapatinib] (partner 2 µM)	EKVX	relative viability	0.186

---

system: SW 900; test: relative viability (nuclei count vs DMSO), 5 days (fraction); higher = more cells survive; details: first compound 0.8 µM

COMPOUND	relative viability
O=c1cc(-c2cccc3c2Sc2ccccc2S3)oc(N2CCOCC2)c1 + O=C(CCCCCCC(=O)Nc1ccccc1)NO [Vorinostat] (partner 1 µM)	0.493
COc1nc(C)cnc1NS(=O)(=O)c1cccnc1-c1ccc(-c2nnco2)cc1 [Zibotentan] + COc1cccc2cc(-c3nc([C@H]4CC[C@H](C(=O)O)CC4)n4ncnc(N)c34)[nH]c12 [OSI-027] (partner 0.5 µM)	0.528
O=c1cc(-c2cccc3c2Sc2ccccc2S3)oc(N2CCOCC2)c1 + Cc1nc(Nc2ncc(C(=O)Nc3c(C)cccc3Cl)s2)cc(N2CCN(CCO)CC2)n1 [Dasatinib] (partner 0.075 µM)	0.352
O=c1cc(-c2cccc3c2Sc2ccccc2S3)oc(N2CCOCC2)c1 + NC(=O)Nc1cc(-c2cccc(F)c2)sc1C(=O)N[C@H]1CCCNC1 [AZD7762] (partner 0.2 µM)	0.719
O=c1cc(-c2cccc3c2Sc2ccccc2S3)oc(N2CCOCC2)c1 + N=C(N)NC(=N)NCCc1ccccc1 [Phenformin] (partner 250 µM)	0.441
COc1nc(C)cnc1NS(=O)(=O)c1cccnc1-c1ccc(-c2nnco2)cc1 [Zibotentan] + CC(=O)Nc1cccc(-n2c(=O)n(C3CC3)c(=O)c3c(Nc4ccc(I)cc4F)n(C)c(=O)c(C)c32)c1 [Trametinib] (partner 0.02 µM)	0.846
COc1nc(C)cnc1NS(=O)(=O)c1cccnc1-c1ccc(-c2nnco2)cc1 [Zibotentan] + Cc1nc(Nc2ncc(C(=O)Nc3c(C)cccc3Cl)s2)cc(N2CCN(CCO)CC2)n1 [Dasatinib] (partner 0.075 µM)	0.562

---

test system: NCI-H2087; assay: relative viability (nuclei count vs DMSO), 5 days (fraction); higher = more cells survive; details: first compound 0.01 µM
Criterion: relative viability strictly under 0.4. Met: Satisfied. Not met: Not satisfied.

COMPOUND	QUALITATIVE_LABEL
CCN(CC)CCCCNc1ncc2cc(-c3cc(OC)cc(OC)c3)c(NC(=O)NC(C)(C)C)nc2n1 + NC(=O)Nc1cc(-c2cccc(F)c2)sc1C(=O)N[C@H]1CCCNC1 [AZD7762] (partner 0.2 µM)	Not satisfied
O=c1cc(N2CCOCC2)oc2c(-c3cccc4c3sc3ccccc34)cccc12 + Nc1nc2[nH]cc(CCc3ccc(C(=O)N[C@@H](CCC(=O)O)C(=O)O)cc3)c2c(=O)[nH]1 [Pemetrexed] (partner 0.2 µM)	Not satisfied
CCN(CC)CCCCNc1ncc2cc(-c3cc(OC)cc(OC)c3)c(NC(=O)NC(C)(C)C)nc2n1 + CC(=O)c1c(C)c2cnc(Nc3ccc(N4CCNCC4)cn3)nc2n(C2CCCC2)c1=O [Palbociclib] (partner 0.5 µM)	Satisfied
CCN(CC)CCCCNc1ncc2cc(-c3cc(OC)cc(OC)c3)c(NC(=O)NC(C)(C)C)nc2n1 + COc1cc2c(Oc3ccc(NC(=O)C4(C(=O)Nc5ccc(F)cc5)CC4)cc3F)ccnc2cc1OCCCN1CCOCC1 [Foretinib] (partner 0.25 µM)	Not satisfied
O=c1cc(N2CCOCC2)oc2c(-c3cccc4c3sc3ccccc34)cccc12 + C[C@]1(O)C[C@@H](c2nc(-c3ccc4ccc(-c5ccccc5)nc4c3)c3c(N)nccn32)C1 [Linsitinib] (partner 1 µM)	Not satisfied
O=c1cc(N2CCOCC2)oc2c(-c3cccc4c3sc3ccccc34)cccc12 + CCNC(=O)c1noc(-c2cc(C(C)C)c(O)cc2O)c1-c1ccc(CN2CCOCC2)cc1 [Luminespib] (partner 0.01 µM)	Satisfied
O=c1cc(N2CCOCC2)oc2c(-c3cccc4c3sc3ccccc34)cccc12 + CS(=O)(=O)N1CCN(Cc2cc3nc(-c4cccc5[nH]ncc45)nc(N4CCOCC4)c3s2)CC1 [Pictilisib] (partner 1 µM)	Not satisfied
O=c1cc(N2CCOCC2)oc2c(-c3cccc4c3sc3ccccc34)cccc12 + NC(=O)Nc1cc(-c2cccc(F)c2)sc1C(=O)N[C@H]1CCCNC1 [AZD7762] (partner 0.2 µM)	Not satisfied
O=c1cc(N2CCOCC2)oc2c(-c3cccc4c3sc3ccccc34)cccc12 + CC(=O)c1c(C)c2cnc(Nc3ccc(N4CCNCC4)cn3)nc2n(C2CCCC2)c1=O [Palbociclib] (partner 0.5 µM)	Satisfied
O=c1cc(N2CCOCC2)oc2c(-c3cccc4c3sc3ccccc34)cccc12 + N=C(N)NC(=N)NCCc1ccccc1 [Phenformin] (partner 250 µM)	Not satisfied
CCN(CC)CCCCNc1ncc2cc(-c3cc(OC)cc(OC)c3)c(NC(=O)NC(C)(C)C)nc2n1 + C[C@]1(O)C[C@@H](c2nc(-c3ccc4ccc(-c5ccccc5)nc4c3)c3c(N)nccn32)C1 [Linsitinib] (partner 1 µM)	Not satisfied
CCN(CC)CCCCNc1ncc2cc(-c3cc(OC)cc(OC)c3)c(NC(=O)NC(C)(C)C)nc2n1 + CC(=O)Nc1cccc(-n2c(=O)n(C3CC3)c(=O)c3c(Nc4ccc(I)cc4F)n(C)c(=O)c(C)c32)c1 [Trametinib] (partner 0.02 µM)	Satisfied
